Values compiled from PubChem BioAssay (NCI).

tested on: UACC-257 melanoma; test: NCI-60 one-dose screen, 48 h (100 = growth as untreated, 0 = no growth, -100 = all killed); details: 10 µM unless noted
The panel holds about 83,000 compounds, 20% with a hit somewhere; the sample as a whole holds those more often.
PROPERTY: growth (%)
One number for each entry, in %.

Answered cases to consult:
{"COMPOUND": "Nc1nc(Nc2ccccc2SSc2ccccc2Nc2nc(N)nc(-c3ccc4ccccc4c3)n2)nc(-c2ccc3ccccc3c2)n1", "TESTED TARGET": "UACC-257 melanoma", "PROPERTY": "growth", "MEASURED RESULT": 112}
{"COMPOUND": "COc1cc(C2N=C(NNc3ccccc3)NC(C)=C2C(C)=O)ccc1O (centres undefined)", "TESTED TARGET": "UACC-257 melanoma", "PROPERTY": "growth", "MEASURED RESULT": 110}
{"COMPOUND": "CCN1CCN(Cc2cn(-c3ccc(S(N)(=O)=O)cc3)nn2)CC1", "TESTED TARGET": "UACC-257 melanoma", "PROPERTY": "growth", "MEASURED RESULT": 107}
{"COMPOUND": "CN1CCN(c2ccc(/C=N/n3cnc4oc(-c5ccccc5)cc4c3=N)cc2)CC1", "TESTED TARGET": "UACC-257 melanoma", "PROPERTY": "growth", "MEASURED RESULT": 96.7}
{"COMPOUND": "CCOC(=O)C1=NNC(c2ccc(Cl)cc2)C1C(=O)N1C(=S)NC(=O)C1CC(C)C (centres undefined)", "TESTED TARGET": "UACC-257 melanoma", "PROPERTY": "growth", "MEASURED RESULT": 116}
{"COMPOUND": "Cc1ccc(-n2cc(/C=C/C(=O)c3ccc(O)cc3)c(-c3ccc(S(C)(=O)=O)cc3)n2)cc1", "TESTED TARGET": "UACC-257 melanoma", "PROPERTY": "growth", "MEASURED RESULT": 93.5}

// each listed compound needs a value for growth
1. CCn1c(SCC(=O)Nc2cccc(C(=O)/C=C/c3cc(OC)c(OC)c(OC)c3)c2)nc2ccccc2c1=O
2. Cn1ccnc1C(=O)/C=C/c1ccc(CNC(=O)c2ccc(S(F)(F)(F)(F)F)cc2)cc1
3. C=CCN(C)S(=O)(=O)/N=C1\NC(=O)NC1=C(Cl)Cl

67.7
89.9
57.4

---

test system: 786-0 renal; experiment: NCI-60 one-dose screen, 48 h; conditions: 10 µM unless noted
This is part of a sample that, as a whole, favours compounds with a hit. Of some 83,000 tested, about 20% had one in any assay. Active and inactive are the calls of the source. Rule for the calls: active = growth percent below 10; inactive = the rest.
Choose the fitting class; nothing outside yes (active), no (inactive) is accepted.

{"COMPOUND": "O=C(Nc1cccc(Cl)c1)Nc1nc2ccc([N+](=O)[O-])cc2o1", "ASSIGNED CLASS": "no"}

Fill in: this test's call for CC1(C)CC[C@]2(C(=O)N3CCOCC3)CC[C@]3(C)C(=CC[C@@H]4[C@@]5(C)C/C(=C/c6ccco6)C(=O)C(C)(C)[C@@H]5CC[C@]43C)[C@@H]2C1 is ___
no

Recorded test outcome, item COC(=O)C1(C)CCC[C@]2(C)[C@H]3C[C@H]4C(C(C)C)=C[C@]3(CC[C@@H]12)[C@H]1[C@@H]4[C@@H](OC(=O)c2ccco2)CC[C@@H]1OC(=O)c1ccco1 (some centres undefined)
no

Just curious, what result did Cc1ccc(-c2cc3nc(C(Cl)Cl)nc(-c4ccco4)n3n2)cc1 get here?
no

In this assay, the call recorded for O=C(/C=C/c1ccc(F)cc1)c1ccc(O)cc1 was what?
no

For COc1ccc(NC(=O)Nc2ccc3c(ccn3C(=O)c3cccc(F)c3)c2)cc1 , which call appears in the assay record?
no

Field: outcome | Entry: COc1ccc2[nH]cc(/C=N/Nc3nc4ccccc4s3)c2c1
no

---

test system: NCI/ADR-RES ovarian; assay: NCI-60 one-dose screen, 48 h; conditions: 10 µM unless noted
Compounds without any hit were thinned out: in the full panel of roughly 83,000, 20% have a hit. Calls of active or inactive are those of the source. How the source made its calls: active means growth percent below 10; inactive means the rest.
Reply using exactly one outcome from Yes for active, No for inactive

Recorded results for 2 compounds are shown here.
{"COMPOUND": "O=S(=O)(Nc1ccc2c(c1)OCO2)c1ccc(-c2cnc(C3CC3)o2)cc1", "ASSIGNED CLASS": "No"}
{"COMPOUND": "CC1(C)NCCC[C@]2(C)[C@H]3C/C(=N\\O)C4[C@@H]5C[C@@](C)(CO)CC[C@]5(C)CC[C@@]4(C)[C@]3(C)CC[C@@H]12 (stereo not given in full)", "ASSIGNED CLASS": "No"}

I would be grateful if you could indicate the recorded call for CCN(CC)c1ccc2c(c1)Oc1nc(N)c(C#N)c(N)c1C2Sc1ccc(F)cc1 (stereo not given) .
Yes

State the result this test recorded for COc1ccc(COc2ccc(/C=C3\C(=O)Nc4ccccc43)cc2OC)cc1 .
No

Short answer needed: outcome of this test for COc1ccc(CCN2C(=O)CSC2=S)cc1 ?
No

---

Tested on: NCI/ADR-RES ovarian
Assay: NCI-60 one-dose screen, 48 h
Conditions: 10 µM unless noted
Experimental: Growth inhibition of the NCI/ADR-RES human […] tumor cell line is measured as a screen for anti-cancer activity. Cells are grown in 96 well plates and exposed to the test compound for 48 hours. Compounds are tested at a single concentration, which is 10^-5 M for most compounds. The reported endpoint is percent growth (GI% or GIPRCNT), where numbers from 0 - 100% represent growth inhibition, and numbers from -100% - 0 represent cell death. For example, a value of 40 represents 60% growth inhibition. […]
This is part of a sample that, as a whole, favours compounds with a hit. Of some 83,000 tested, about 20% had one in any assay. Active and inactive are the calls of the source. Rule for the calls: active = growth percent below 10; inactive = the rest.
One label from this list, please: active, inactive

These recorded examples may help you get a feel for the data.
{"CHEMICAL STRING": "COc1ccccc1NCc1cccn1Cc1ccc(F)cc1", "ASSIGNED CLASS": "inactive"}
{"CHEMICAL STRING": "N#Cc1cccc(CN2CCc3ncn(Cc4ccc(Cl)cc4)c(=O)c3C2)c1", "ASSIGNED CLASS": "inactive"}
{"CHEMICAL STRING": "CCN1CCN(Cc2ccc(C(=O)Nc3ccc(C)c(Oc4ccc(-c5[nH]nc6ncnc(N)c56)cc4)c3)cc2C(F)(F)F)CC1", "ASSIGNED CLASS": "inactive"}
{"CHEMICAL STRING": "COc1cc(/C=C2\\C(=O)Nc3ccccc32)ccc1OCc1ccc(Cl)cc1", "ASSIGNED CLASS": "inactive"}
{"CHEMICAL STRING": "N#Cc1cnc2ccc(-c3cnc4[nH]ncc4c3)cc2c1N1CCc2cc(F)c(Cl)cc21", "ASSIGNED CLASS": "active"}

Lab log entry: N#Cc1cnc2ccc(-c3cnc(N)nc3)cc2c1N1CCc2cc(F)c(Cl)cc21 — outcome as called in the assay?
active

Identify the outcome logged in this assay for the compound shown: C#CCOC(=O)[C@@H]1CCCN1CC#C
inactive

Called result for CC(C)C[C@@H]1N[C@@]2(C(=O)Nc3ccccc32)[C@@H](c2ccc(F)cc2)[C@@H]1C(=O)c1ccc(O)cc1
inactive

How was C=C=COc1cccc(/C(N)=N/C(N)=N/c2nc3ccccc3s2)c1 classified in this test?
inactive

Test call, this compound: NC(N)=Nc1ccc(Oc2cccc(NC(N)=Nc3ccc(Br)cc3)c2)cn1
inactive

---

Tested on: NCI-H460 lung
Experiment: NCI-60 one-dose screen, 48 h (100 = growth as untreated, 0 = no growth, -100 = all killed)
Settings: 10 µM unless noted
Method: Growth inhibition of the NCI-H460 human Non-Small Cell Lung tumor cell line is measured as a screen for anti-cancer activity. Cells are grown in 96 well plates and exposed to the test compound for 48 hours. Compounds are tested at a single concentration, which is 10^-5 M for most compounds. The reported endpoint is percent growth (GI% or GIPRCNT), where numbers from 0 - 100% represent growth inhibition, and numbers from -100% - 0 represent cell death. […]
This is part of a sample that, as a whole, favours compounds with a hit. Of some 83,000 tested, about 20% had one in any assay.
PROPERTY: growth (%)
Give bare numbers, in %.

Observe how each entry below is paired with its result.
{"MOLECULE": "O=S(=O)(Nc1ccc2c(c1)OCO2)c1ccc(-c2cnc(C3CC3)o2)cc1", "growth [%]": 23.5}
{"MOLECULE": "CC(C)(C)c1ccc(C(=O)Nc2nc3ccc(O)cc3s2)cc1", "growth [%]": 19.1}
{"MOLECULE": "CC(C)(C)n1cc(-c2ccnc(NCCCNS(=O)(=O)c3cccc(F)c3)n2)c(-c2ccc(Cl)c(O)c2)n1", "growth [%]": 93.6}
{"MOLECULE": "CCCn1cnc2c(c1=N)C(c1ccc(OC)cc1)c1sc3c(CC)cccc3c1O2 (stereo unspecified)", "growth [%]": 10.1}
{"MOLECULE": "Cc1ccc2sc3c(c2c1)OC(N)=C(C#N)C3c1ccc(Cl)cc1 (stereo unspecified)", "growth [%]": 56.2}
{"MOLECULE": "CCC(NC(c1cc2cccc3ccc4cccc1c4c32)c1nnnn1C(C)(C)C)C1CCCCC1 (stereo unspecified)", "growth [%]": 31.2}

Field: growth. Fill in for each record below.
1. NC/C(=C/F)COc1ccc2nc(NCc3cccnc3)oc2c1
2. O=C(/C=C/c1ccc(F)cc1)c1ccc(O)cc1
3. COc1ccccc1NCc1cccn1Cc1ccc(F)cc1
4. Nc1ccccc1NC(=O)c1ccc(NC(=O)C/C=C/c2cccnc2)cn1

1: 98.8; 2: 103; 3: 103; 4: 31.6

Your task in this section: give growth for each listed record.
1. Clc1ccc(N/N=c2/oc3ccccc3cc2-c2cc3ccccc3[nH]2)cc1
2. COc1cc(-c2nc(SC(C)C)n(C(C)C)c(=O)c2C#N)ccc1OCc1ccccc1
3. Cc1ccc2c(c1)C(=O)/C(=C/c1cccc(F)c1)S2
4. O=C(CCn1cc[n+](CC(=O)c2ccc(-c3ccccc3)cc2)c1)Nc1cccc2cccnc12

85.2
21
105
91.9
